- test_system: P2X7 (Homo sapiens (Human), UniProt Q99572)
- Sequence (Q99572 whole entry): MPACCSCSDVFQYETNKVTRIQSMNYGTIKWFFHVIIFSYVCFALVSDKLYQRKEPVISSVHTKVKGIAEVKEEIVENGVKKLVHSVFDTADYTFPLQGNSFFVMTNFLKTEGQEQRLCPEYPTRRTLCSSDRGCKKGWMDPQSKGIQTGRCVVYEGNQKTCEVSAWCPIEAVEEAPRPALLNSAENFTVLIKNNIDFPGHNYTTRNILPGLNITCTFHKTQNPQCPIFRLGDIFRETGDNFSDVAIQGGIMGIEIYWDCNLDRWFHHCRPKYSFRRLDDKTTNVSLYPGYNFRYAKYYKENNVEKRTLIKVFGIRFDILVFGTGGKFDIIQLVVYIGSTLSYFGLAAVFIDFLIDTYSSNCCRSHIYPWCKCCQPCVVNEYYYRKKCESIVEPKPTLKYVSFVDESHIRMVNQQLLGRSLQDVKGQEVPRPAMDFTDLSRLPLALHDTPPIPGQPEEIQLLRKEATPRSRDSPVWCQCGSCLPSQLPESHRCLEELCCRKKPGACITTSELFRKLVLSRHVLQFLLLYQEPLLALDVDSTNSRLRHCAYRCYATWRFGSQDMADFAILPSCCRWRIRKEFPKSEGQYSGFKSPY
- experiment_notes: P2X7 antagonism in human peripheral blood mononuclear cells (PBMCs), IL-1β release after LPS + Bz-ATP (ELISA)
- Assay type: cell-based
- experimental_context: Table 3 (additional runs), 10 μM compound, 0.5 mM Bz-ATP
- Protocol: Human blood was collected using a blood donor program. […] Cells were incubated for an additional 1.5 hours. […] Data are analyzed and graphed on Graphpad Prism 5. […] The IC50 for each compound is then uploaded into 3DX.
observation_type: PBMC 10 μM (% control)

> print(dat)
                                   compound  measurement.unit  experimental.result
1  Cc1nc2c(c(-c3ccn[nH]3)n1)C[C@@H](C)N(C(=O)c1ccc(F)c(C(F)(F)F)c1Cl)C2 (single isomer, unassigned) [Example 66]         % control                 −6.1

I = Cc1nc2c(c(-c3ccn[nH]3)n1)C[C@@H](C)N(C(=O)c1ccc(Cl)c(F)c1Cl)C2 [Example 71]
II = C[C@H]1c2ncnc(-c3ccn[nH]3)c2CCN1C(=O)c1ccc(F)c(Cl)c1Cl (single isomer, unassigned) [Example 120]
Ask | Which value of PBMC 10 μM (% control) is numerically greater: that of I or that of II ? Response format: the label of the selected entry.
Reply | II

* * *

- test_system: UniProt:Q99572
- experiment_notes: P2X7 antagonism in human peripheral blood mononuclear cells (PBMCs), IL-1β release after LPS + Bz-ATP (ELISA)
- Type: cell-based
- experimental_context: P2X7, Table 2, 10 μM compound, 0.5 mM Bz-ATP, read-out: PBMC 10 μM (% control)
observation_type: remaining activity at 10 µM (%)

Consider the following illustrative entries.
> print(dat)
                                   molecule             observation.type  experimental.result
1  C[C@@H]1c2ncnc(-c3ccn[nH]3)c2CCN1C(=O)c1ccc(F)c(C(F)(F)F)c1Cl (single isomer, unassigned)  remaining activity at 10 µM                 -4.4
2  C[C@@H]1c2ncnc(-c3ccn[nH]3)c2CCN1C(=O)c1ccc(Cl)c(F)c1Cl (single isomer, unassigned)  remaining activity at 10 µM                  4.1
3  CC(C)c1nc2c(c(-c3ccn[nH]3)n1)C[C@H](C)N(C(=O)c1cccc(C(F)(F)F)c1Cl)C2 (single isomer, unassigned)  remaining activity at 10 µM                  6.3

a = C[C@H]1c2ncnc(-c3ccn[nH]3)c2CCN1C(=O)c1cccc(C(F)(F)F)c1Cl (single isomer, unassigned)
b = CC(C)c1nc2c(c(-c3ccn[nH]3)n1)C[C@@H](C)N(C(=O)c1cccc(C(F)(F)F)c1Cl)C2 (single isomer, unassigned)
c = Cc1nc2c(c(-c3ccn[nH]3)n1)C[C@H](C)N(C(=O)c1ccc(F)cc1F)C2 (single isomer, unassigned)
d = COCCn1ccc(-c2nc(C)nc3c2C[C@@H](C)N(C(=O)c2cccc(C(F)(F)F)c2Cl)C3)n1 (single isomer, unassigned)
e = Cc1nc2c(c(-c3ccn[nH]3)n1)C[C@H](C)N(C(=O)c1ccc(F)c(C(F)(F)F)c1Cl)C2 (single isomer, unassigned)
Ask | Reorder the items by remaining activity at 10 µM, least to greatest. API: response body holds the labels in the requested order.
Reply | c, a, e, d, b
(c: -19.2%, a: -0.5%, e: 3.9%, d: 7.3%, b: 11.7%)

* * *

- test_system: P2X7 (Homo sapiens (Human))
- experiment_notes: P2X7 antagonism in human peripheral blood mononuclear cells (PBMCs), IL-1β release after LPS + Bz-ATP (ELISA)
- Format: cell-based
- experimental_context: Table 3 (additional runs), 10 μM compound, 0.5 mM Bz-ATP
observation_type: PBMC 10 μM (% control)

> print(dat)
                                   compound  experimental.result
1  Cc1nc2c(c(-c3ccn[nH]3)n1)C[C@@H](C)N(C(=O)c1ccc(Cl)cc1Cl)C2 (single isomer, unassigned)                  7.5

a = CCc1nc2c(c(-c3ccn[nH]3)n1)C[C@H](C)N(C(=O)c1cccc(C(F)(F)F)c1Cl)C2 (single isomer, unassigned)
b = Cc1nc2c(c(-c3ccn[nH]3)n1)C[C@H](C)N(C(=O)c1cccc(Cl)c1Cl)C2 (single isomer, unassigned)
c = Cc1nc2c(c(-c3ccn[nH]3)n1)C[C@@H](C)N(C(=O)c1cccc(C(F)(F)F)c1C)C2 (single isomer, unassigned)
d = Cc1nc2c(c(-c3ccn[nH]3)n1)C[C@H](C)N(C(=O)c1ccc(F)cc1Cl)C2 (single isomer, unassigned)
e = Cc1nc2c(c(-c3ccn[nH]3)n1)C[C@@H](C)N(C(=O)c1cccc(C(F)(F)F)c1F)C2 (single isomer, unassigned)
Ask | Please give the order of these compounds when sorted by PBMC 10 μM (% control), largest value leading. Please, when replying, give the labels in the order that was requested.
Reply | d, a, e, c, b
(d: 9.4 % control, a: 4.0 % control, e: 2.4 % control, c: 1.4 % control, b: −6.2 % control)

* * *

- test_system: P2X7 (Homo sapiens (Human), UniProt Q99572)
- experiment_notes: Ca2+ flux (FLIPR) in 1321N1 cells expressing recombinant human P2X7 channel
- experimental_context: Table 3 (additional runs); 250 μM BzATP
- Protocol: P2X7 Antagonism in Recombinant Human P2X7 Cells or Recombinant Rat P2X7 Cells: (a) Ca^2+ Flux and (b) Radioligand Binding (a) Ca^2+ flux: 1321N1 cells expressing the recombinant human or rat P2X7 channel was cultured in HyQ DME/(HyClone/Dulbecco's Modified Eagle Medium) high glucose supplemented with 10% Fetal Bovine Serum (FBS) and appropriate selection marker. […] The fluorescence change was measured 180 seconds after adding the agonist.
pIC50: −log10 of the molar value.
observation_type: pIC50

A = Cc1nc2c(c(-c3ccn[nH]3)n1)C[C@@H](C)N(C(=O)c1cccc(OC(F)(F)F)c1)C2 (single isomer, unassigned)
B = COc1cccc(C(=O)N2Cc3nc(C)nc(-c4ccn[nH]4)c3CC2C)c1C (stereo not drawn)
Ask | Form field 'greater pIC50' accepts A or B ; which applies? Please indicate the selected item by its label.
Reply | B
(B: 5.98, A: 5.05)

* * *

- test_system: P2X7 (Homo sapiens (Human), UniProt Q99572)
- experiment_notes: P2X7 antagonism in human peripheral blood mononuclear cells (PBMCs), IL-1β release after LPS + Bz-ATP (ELISA)
- Assay type: cell-based
- experimental_context: P2X7, Table 2, 10 μM compound, 0.5 mM Bz-ATP, read-out: PBMC 10 μM (% control)
- Method: Human blood was collected using a blood donor program. […] Cells were incubated for an additional 1.5 hours. […] Data are analyzed and graphed on Graphpad Prism 5. […] The IC50 for each compound is then uploaded into 3DX.
observation_type: remaining activity at 10 µM (%)

Example entries and their recorded answers appear below.
> print(dat)
                                   compound  experimental.result
1  Cc1nc2c(c(-c3ccn[nH]3)n1)C[C@H](C)N(C(=O)c1ccc(F)c(Cl)c1Cl)C2 (single isomer, unassigned)                   -1
2  Cc1nc2c(c(-c3ccn[nH]3)n1)C[C@H](C)N(C(=O)c1cccc(Cl)c1Cl)C2 (single isomer, unassigned)                 -6.2
3  C[C@@H]1c2ncnc(-c3ccn[nH]3)c2CCN1C(=O)c1ccc(F)c(Cl)c1Cl (single isomer, unassigned)                 -1.5
4  Cc1nc2c(c(-c3ccn[nH]3)n1)C[C@@H](C)N(C(=O)c1cccc(C(F)(F)F)c1F)C2 (single isomer, unassigned)                  2.4
5  Cc1nc2c(c(-c3ccn[nH]3)n1)C[C@@H](C)N(C(=O)c1cccc(C(F)(F)F)c1C)C2 (single isomer, unassigned)                  1.4

a = Cc1nc2c(c(-c3ccn[nH]3)n1)C[C@H](C)N(C(=O)c1ccc(F)cc1Cl)C2 (single isomer, unassigned)
b = Cc1nc2c(c(-c3ccn[nH]3)n1)C[C@H](C)N(C(=O)c1cccc(C(F)(F)F)c1Cl)C2 (single isomer, unassigned)
Ask | Which entry shows the lesser value of remaining activity at 10 µM here, a or b ? Kindly state the label of the option you pick.
Reply | b

* * *

- test_system: P2X7 (Homo sapiens (Human))
- experiment_notes: P2X7 antagonism in human peripheral blood mononuclear cells (PBMCs), IL-1β release after LPS + Bz-ATP (ELISA)
- Format: cell-based
- experimental_context: P2X7, Table 2, 10 μM compound, 0.5 mM Bz-ATP, read-out: PBMC 10 μM (% control)
observation_type: remaining activity at 10 µM (%)

> print(dat)
                                   molecule             observation.type  measurement.unit  experimental.result
1  Cc1nc2c(c(-c3ccn[nH]3)n1)C[C@@H](C)N(C(=O)c1ccc(F)c(Cl)c1Cl)C2 (single isomer, unassigned) [Example 81]  remaining activity at 10 µM                 %                   21
2  Cc1nc2c(c(-c3ccn[nH]3)n1)C[C@@H](C)N(C(=O)c1ccc(Cl)c(F)c1Cl)C2 [Example 71]  remaining activity at 10 µM                 %                 -4.1
3  Cc1nc2c(c(-c3ccn[nH]3)n1)C[C@@H](C)N(C(=O)c1cccc(C(F)(F)F)c1Cl)C2 (single isomer, unassigned) [Example 58]  remaining activity at 10 µM                 %                    5
4  Cc1nc2c(c(-c3ccn[nH]3)n1)C[C@H](C)N(C(=O)c1ccc(Cl)c(F)c1Cl)C2 [Example 72]  remaining activity at 10 µM                 %                 -2.6

P = Cc1nc2c(c(-c3ccn[nH]3)n1)C[C@@H](C)N(C(=O)c1ccc(F)cc1F)C2 (single isomer, unassigned) [Example 94]
Q = Cc1nc2c(c(-c3ccn[nH]3)n1)C[C@@H](C)N(C(=O)c1ccc(Cl)cc1Cl)C2 (single isomer, unassigned) [Example 84]
R = C[C@H]1c2ncnc(-c3ccn[nH]3)c2CCN1C(=O)c1ccc(F)c(Cl)c1Cl (single isomer, unassigned) [Example 120]
S = Cc1nc2c(c(-c3ccn[nH]3)n1)C[C@@H](C)N(C(=O)c1ccc(Cl)cc1F)C2 (single isomer, unassigned) [Example 88]
T = Cc1nc2c(c(-c3ccn[nH]3)n1)C[C@@H](C)N(C(=O)c1ccc(F)c(C(F)(F)F)c1Cl)C2 (single isomer, unassigned) [Example 66]
Ask | Rank entries according to their remaining activity at 10 µM, from the largest number down. Write the labels, ordered according to the request.
Reply | P, S, Q, R, T
(P: 71.8%, S: 49.4%, Q: 7.5%, R: 2.9%, T: -6.1%)
